In this section, each of the molecules is paired with its reported EC50.
test system: SARS-CoV-2 (USA_WA1/2020); assay: Antiviral Activity from SARS-CoV-2 Infection (cytopathic effect, Cell Titer-Glo); assay type: cell-based; conditions: Severe acute respiratory syndrome coronavirus 2, Vero C1008, 72 h, VeroE6 cells enriched for hACE2, MOI 0.002, 3-day incubation; tested alone or with P-gp inhibitor CP-100356 2 μM (table does not say which); read-out: Geometric Mean EC50
Provide the reading as a plain figure in nM.

# returns recorded EC50 (system: SARS-CoV-2 (USA_WA1/2020)) for CC(C)[C@H](NC(=O)C(F)(F)F)C(=O)N1C[C@H]2[C@@H]([C@H]1C(=O)N[C@@H](C[C@@H]1CCNC1=O)C(=O)COc1cccc(Cl)c1)C2(C)C 76.2

# returns recorded EC50 (system: SARS-CoV-2 (USA_WA1/2020)) for CC(C)[C@H](NS(=O)(=O)C(F)(F)F)C(=O)N1C[C@H]2[C@@H]([C@H]1C(=O)N[C@@H](C[C@@H]1CC(O)NC1=O)C(=O)COc1ccc(F)cc1F)C2(C)C (stereo partly shown) 2250

# returns recorded EC50 (system: SARS-CoV-2 (USA_WA1/2020)) for CC(C)[C@H](NS(=O)(=O)C(F)(F)F)C(=O)N1C[C@H]2[C@@H]([C@H]1C(=O)N[C@@H](C[C@@H]1CCNC1=O)C(=O)COc1cccc(Cl)c1)C2(C)C 112

# returns recorded EC50 (system: SARS-CoV-2 (USA_WA1/2020)) for COc1ccc(COCC(=O)[C@H](C[C@@H]2CCNC2=O)NC(=O)[C@@H]2[C@@H]3[C@H](CN2C(=O)[C@@H](NC(=O)C(F)(F)F)C(C)(C)C)C3(C)C)cc1 48.7

# returns recorded EC50 (system: SARS-CoV-2 (USA_WA1/2020)) for CC(C)(C)[C@H](NS(=O)(=O)C(F)(F)F)C(=O)N1C[C@H]2[C@@H]([C@H]1C(=O)N[C@@H](C[C@@H]1CCNC1=O)C(=O)COc1cccc(Cl)c1)C2(C)C 16.8

# returns recorded EC50 (system: SARS-CoV-2 (USA_WA1/2020)) for CC(C)(C)[C@H](NS(=O)(=O)C(F)(F)F)C(=O)N1C[C@H]2[C@@H]([C@H]1C(=O)N[C@@H](C[C@@H]1CCNC1=O)C(=O)COc1ccc(F)cc1F)C2(C)C 207

# returns recorded EC50 (system: SARS-CoV-2 (USA_WA1/2020)) for CC(C)[C@H](NC(=O)C(F)(F)F)C(=O)N1C[C@H]2[C@@H]([C@H]1C(=O)N[C@@H](C[C@@H]1CCNC1=O)C(=O)COc1ccc(F)c(F)c1)C2(C)C 44.3

# returns recorded EC50 (system: SARS-CoV-2 (USA_WA1/2020)) for COC(=O)N[C@H](C(=O)N1C[C@H]2[C@@H]([C@H]1C(=O)N[C@@H](C[C@@H]1CCNC1=O)C(=O)COc1cccc(C(F)(F)F)c1)C2(C)C)C(C)(C)C 13.3

Further cases:
# returns recorded EC50 (system: SARS-CoV-2 (USA_WA1/2020)) for CC(C)(C)[C@H](NS(=O)(=O)C(F)(F)F)C(=O)N1C[C@H]2[C@@H]([C@H]1C(=O)N[C@@H](C[C@@H]1CCNC1=O)C(=O)COc1cc(F)ccc1F)C2(C)C 86

# returns recorded EC50 (system: SARS-CoV-2 (USA_WA1/2020)) for CC(C)[C@H](NS(C)(=O)=O)C(=O)N1CCC(C)(C)CC1C(=O)N[C@@H](C[C@@H]1CCNC1=O)C(=O)COc1ccc(F)cc1F (single isomer, unassigned) 456

----------
In this section, each of the molecules is paired with its reported EC50.
system: SARS-CoV-2 (USA_WA1/2020); test: Antiviral Activity from SARS-CoV-2 Infection (cytopathic effect, Cell Titer-Glo); assay type: cell-based; conditions: Severe acute respiratory syndrome coronavirus 2, Vero C1008, 72 h, VeroE6 cells enriched for hACE2, MOI 0.002, 3-day incubation; tested alone or with P-gp inhibitor CP-100356 2 μM (table does not say which); read-out: Geometric Mean EC50
Provide the reading as a plain figure in nM.

Suppose we examine the molecule COC(=O)N[C@H](C(=O)N1C[C@H]2[C@@H]([C@H]1C(=O)N[C@@H](C[C@@H]1CCNC1=O)C(=O)COc1ccc(F)cc1F)C2(C)C)C(C)(C)C [Example 24] ; what EC50 value has been reported? 17

Suppose we examine the molecule CC(C)[C@H](NC(=O)C(F)(F)F)C(=O)N1C[C@H]2[C@@H]([C@H]1C(=O)N[C@@H](C[C@@H]1CCNC1=O)C(=O)COc1ccc(F)cc1)C2(C)C [Example 52] ; what EC50 value has been reported? 73.3

Suppose we examine the molecule CC(C)[C@H](NC(=O)C(F)(F)F)C(=O)N1C[C@H]2[C@@H]([C@H]1C(=O)N[C@@H](C[C@@H]1CCNC1=O)C(=O)COc1ccccc1F)C2(C)C [Example 47] ; what EC50 value has been reported? 59.7

Suppose we examine the molecule CC(C)(C)[C@H](NS(C)(=O)=O)C(=O)N1C[C@H]2[C@@H]([C@H]1C(=O)N[C@@H](C[C@@H]1CCNC1=O)C(=O)COc1ccc(F)cc1F)C2(C)C [Example 13] ; what EC50 value has been reported? 98.6

----------
target: SARS-CoV-2 3CL protease (Severe acute respiratory syndrome coronavirus 2, UniProt P0DTD1); construct: measures the activity of full-length SARS-CoV-2 3CL protease; assay: SARS-CoV-2 Coronavirus 3C Protease FRET Assay; assay type: biochemical; settings: Examples 14-78 and 114 (second head of Table 2); Morrison equation fit, 15 nM enzyme, 25 μM peptide substrate; read-out: Geometric Mean Ki (nM) IC50
QUANTITY NAME: Ki

Study these solved cases before continuing.
Suppose we examine the compound CC(C)(C)[C@H](NS(=O)(=O)C(F)(F)F)C(=O)N1C[C@H]2[C@@H]([C@H]1C(=O)N[C@H](C[C@@H]1CCNC1=O)C(=O)COc1ccc(F)cc1F)C2(C)C ; what Ki value has been reported? 129 nM

Suppose we examine the compound COC(=O)N[C@H](C(=O)N1C[C@H]2[C@@H]([C@H]1C(=O)N[C@@H](C[C@@H]1CCNC1=O)C(=O)COc1ccccc1)C2(C)C)C(C)(C)C ; what Ki value has been reported? 2.15 nM

Suppose we examine the compound Cc1ccc2nc(OCC(=O)[C@H](C[C@@H]3CCNC3=O)NC(=O)[C@@H]3[C@@H]4[C@H](CN3C(=O)[C@@H](NC(=O)C(F)(F)F)C(C)C)C4(C)C)oc2c1 ; what Ki value has been reported? 505 nM

Suppose we examine the compound COC(=O)N[C@H](C(=O)N1C[C@H]2[C@@H]([C@H]1C(=O)N[C@@H](C[C@@H]1CCNC1=O)C(=O)COc1cccc(C(F)(F)F)c1)C2(C)C)C(C)(C)C ; what Ki value has been reported? < 0.443 nM

Now turn to the next compound.
Suppose we examine the compound CCn1nc(C)cc1OCC(=O)[C@H](C[C@@H]1CCNC1=O)NC(=O)[C@@H]1[C@@H]2[C@H](CN1C(=O)[C@@H](NC(=O)OC)C(C)(C)C)C2(C)C ; what Ki value has been reported? 3.04 nM

----------
system: SARS-CoV-2 (USA_WA1/2020); test: Antiviral Activity from SARS-CoV-2 Infection (cytopathic effect, Cell Titer-Glo); assay type: cell-based; conditions: Severe acute respiratory syndrome coronavirus 2, Vero C1008, 72 h, VeroE6 cells enriched for hACE2, MOI 0.002, 3-day incubation; tested alone or with P-gp inhibitor CP-100356 2 μM (table does not say which); read-out: Geometric Mean EC50
In this section, each of the molecules is paired with its reported EC50.
Provide the reading as a plain figure in µM.

Study these solved cases before continuing.
# returns recorded EC50 (system: SARS-CoV-2 (USA_WA1/2020)) for CC(C)[C@H](NC(=O)C(F)(F)F)C(=O)N1C[C@H]2[C@@H]([C@H]1C(=O)N[C@@H](C[C@@H]1CCNC1=O)C(=O)COc1nnc(C(F)(F)F)n1C)C2(C)C 25.7

# returns recorded EC50 (system: SARS-CoV-2 (USA_WA1/2020)) for COC(=O)N[C@H](C(=O)N1C[C@H]2[C@@H]([C@H]1C(=O)N[C@@H](C[C@@H]1CCNC1=O)C(=O)COc1cccc(Cl)c1)C2(C)C)C(C)(C)C 0.0116

# returns recorded EC50 (system: SARS-CoV-2 (USA_WA1/2020)) for CC(C)[C@H](NS(=O)(=O)C(F)(F)F)C(=O)N1C[C@H]2[C@@H]([C@H]1C(=O)N[C@@H](C[C@@H]1CCNC1=O)C(=O)COc1cccc(C(F)(F)F)c1)C2(C)C 0.205

# returns recorded EC50 (system: SARS-CoV-2 (USA_WA1/2020)) for CC(C)[C@H](NC(=O)C(F)(F)F)C(=O)N1C[C@H]2[C@@H]([C@H]1C(=O)N[C@@H](C[C@@H]1CCNC1=O)C(=O)COc1nnc(C(C)(C)C)n1C)C2(C)C 7.37

Now turn to the next molecule.
# returns recorded EC50 (system: SARS-CoV-2 (USA_WA1/2020)) for CC(C)[C@H](NC(=O)C(F)(F)F)C(=O)N1C[C@H]2[C@@H]([C@H]1C(=O)N[C@@H](C[C@@H]1CCNC1=O)C(=O)COc1ccc(F)nc1)C2(C)C 0.167
